ASSAY NAME: Apparent clearance in mouse at 1 mg/kg, iv by LC-MS analysis
Type: ADME, organism-based
STATED CONDITIONS: in vivo, read-out: CL(app)
MEASUREMENT NAME: clearance (mL/min/kg)
Record the value in mL/min/kg, omitting the unit from your answer.

Q) Consider the compound Cc1ccc(CNC(=O)[C@@H]2CNC[C@H]2c2ccc(C(F)(F)F)cc2)cc1 (racemic) and give its measured clearance.
A) 52

====

Tested on: hERG
ASSAY NAME: in vitro
STATED CONDITIONS: human, membranes expressing human ERG, probe Tracer Red
Description: Selectivity ratio of IC50 for inhibition of Tracer Red binding to human ERG expressed in membranes to IC50 for chloroquine-sensitive Plasmodium falciparum 3D7
MEASUREMENT NAME: selectivity ratio

Q) Observed selectivity ratio on hERG for C[C@H](NC(=O)[C@H]1CNC[C@@H]1c1ccc(C(F)(F)F)nc1)c1ccc(N(C)C)cc1 , please.
A) > 357

Q) Here is the next compound: CN(C)c1ccc(CNC(=O)[C@H]2CNC[C@@H]2c2cnc(C(F)(F)F)nc2)cc1 (racemic)
A) > 111

====

ASSAY NAME: Oral bioavailability in mouse at 5 mg/kg by LC-MS analysis
STATED CONDITIONS: in vivo
MEASUREMENT NAME: bioavailability
Could you write the number and then its unit?

Q) I'd like to know its bioavailability. The molecule in question is CN(C)c1ccc(CNC(=O)[C@H]2CNC[C@@H]2c2ccc(C(F)(F)F)nc2)cc1 (racemic)
A) 13%

====

The compounds below have reported IC50 for Voltage-gated inwardly rectifying potassium channel KCNH2 (Homo sapiens, UniProt Q12809).
Numbers only here, please. The scale is µM.

Q) Consider the compound shown here: CN(C)c1ccc(CNC(=O)[C@@H]2CNC[C@H]2c2ccc(C(F)(F)F)c(Cl)c2)cc1 (racemic) What is its recorded IC50?
A) 7.56

Q) // same read-out, input: C[C@H](NC(=O)[C@H]1CNC[C@@H]1c1ccc(C(F)(F)F)cc1)c1ccc(N(C)C)cc1
A) 32

Q) Lookup CN(C)c1ccc(CNC(=O)[C@H]2CNC[C@@H]2c2ccc(C(F)(F)F)cc2)cc1 (racemic)
A) 9.41

Q) Same thing, different compound: CN(C)c1ccc(CNC(=O)[C@@H]2CNC[C@H]2c2ccc(Oc3ccccc3)cc2)cc1 (racemic)
A) 2.11

Q) Consider next the compound CCN(CC)c1ccc(CNC(=O)[C@@H]2CNC[C@H]2c2ccc(C(F)(F)F)cc2)cc1 (racemic) in the same way.
A) 4.74

Q) Now the compound CN(C)c1ccc(CNC(=O)[C@@H]2CNC[C@H]2c2ccc(C(F)(F)F)c(F)c2)cc1 (racemic)
A) 8.54

Q) And then CN(C)c1ccc(CNC(=O)[C@H]2CNC[C@@H]2c2ccc(C(F)(F)F)nc2)cc1 (racemic) , what is it?
A) 21.7

====

ASSAY NAME: Half life in mouse liver microsomes at 1 uM measured after 30 mins in presence of NADPH by LC-MS/MS analysis
Format: ADME, Microsome
STATED CONDITIONS: microsomes, 0.5 h, 1 µM
MEASUREMENT NAME: t1/2 (min)
Express your answer in min, writing the number without its unit.

Q) Quick one: t1/2 for Cc1ccc(CNC(=O)[C@@H]2CNC[C@H]2c2ccc(C(F)(F)F)cc2)cc1 (racemic) ?
A) 161

Q) What do we get for CN(C)c1ccc(CNC(=O)[C@@H]2CNC[C@H]2c2ccc(Oc3ccccc3)cc2)cc1 (racemic) ?
A) 31

Q) Consider next the compound CN(C)c1ccc(CNC(=O)[C@H]2CNC[C@@H]2c2ccc(C(F)(F)F)nc2)cc1 (racemic) in the same way.
A) 70

Q) Do the same for CN(C)c1ccc(CNC(=O)[C@@H]2CNC[C@H]2c2ccc(C(F)(F)F)c(F)c2)cc1 (racemic) please
A) 34

Q) Queued: CN(C)c1ccc(CNC(=O)[C@@H]2CNC[C@H]2c2ccc(C(F)(F)F)c(Cl)c2)cc1 (racemic)
A) 33

Q) Another compound to check: C[C@H](NC(=O)[C@H]1CNC[C@@H]1c1ccc(C(F)(F)F)cc1)c1ccc(N(C)C)cc1
A) 38

Q) Could you do the same for CN(C)c1ccc(CNC(=O)[C@H]2CNC[C@@H]2c2ccc(C(F)(F)F)cc2)cc1 (racemic) , please?
A) 35

====

ASSAY NAME: Half life in mouse at 1 mg/kg, iv by LC-MS analysis
Assay type: ADME, organism-based
STATED CONDITIONS: in vivo
MEASUREMENT NAME: half-life (h)
Please respond with the number in h and leave the unit unwritten.

Q) What does the data say about its half-life? Entry: Cc1ccc(CNC(=O)[C@@H]2CNC[C@H]2c2ccc(C(F)(F)F)cc2)cc1 (racemic)
A) 1.7

====

ASSAY NAME: Oral bioavailability in mouse at 5 mg/kg by LC-MS analysis
STATED CONDITIONS: in vivo
MEASUREMENT NAME: bioavailability
State the value with its unit after it.

Q) What measured bioavailability goes with C[C@H](NC(=O)[C@H]1CNC[C@@H]1c1ccc(C(F)(F)F)cc1)c1ccc(N(C)C)cc1 ?
A) 32%
